Origin of measurements: patent US20240139178A1

# SYSTEM: Aβ1-42 (Homo sapiens, UniProt P05067)
# Construct: human A81-42 monomers (UniProtKB-P05067, a.a. 672-713)
# Sequence (P05067 672-713): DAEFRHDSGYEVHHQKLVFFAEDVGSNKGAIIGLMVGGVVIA
# MEASUREMENT PROTOCOL: Aβ aggregation inhibition test (Thioflavin T analysis)
# Format: biochemical
# CONDITION DETAILS: 20 μM compound, 50 μM Aβ, 3 days; relative to control (100%)
REPORTED METRIC: Aggregation (%)
Answers are plain numbers, in %.

COMPOUND: CN1CCN(C2=Nc3cc(Cl)ccc3Nc3ccccc32)CC1
Aggregation (%): 99.14

Hi, could you look up Aggregation (%) for each item in my list?
1. CCN1CCCC1CNC(=O)c1cc(S(=O)(=O)CC)c(N)cc1OC (stereo not shown) [Amisulpride]
2. CC12CC3CC(C)(C1)CC(N)(C3)C2
3. Cc1nc2n(c(=O)c1CCN1CCC(c3noc4cc(F)ccc34)CC1)CCCC2
4. CN1CCN(CC/C=C2/c3ccccc3Sc3ccc(S(=O)(=O)N(C)C)cc32)CC1
5. CN(C)CCCN1c2ccccc2Sc2ccc(C(F)(F)F)cc21

Found:
96.29
95.84
117.68
125.23
49.84

The recorded Aggregation (%) with Aβ1-42 (Homo sapiens, UniProt P05067) for CO[C@H]1/C=C/O[C@@]2(C)Oc3c(C)c(O)c4c(O)c(c(/C=N/N5CCN(C6CCCC6)CC5)c(O)c4c3C2=O)NC(=O)/C(C)=C\C=C\[C@H](C)[C@H](O)[C@@H](C)[C@@H](O)[C@@H](C)[C@H](OC(C)=O)[C@@H]1C was 13.35
